B1: BTBD1 (parent)
chain: FVLGKGRGAAAAGGPQRIPAHRFV

# Variants of: B1
# Method notes: protein stability index of a GFP-peptide fusion (GPS, HEK-293T) (PSI 1-6); higher = more stable;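 also: lentivirally expressed fusions sorted by FACS into six bins by GFP to DsRed ratio, PSI derived from sequencing read proportions per bin multiplied by bin number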
# Details: c terminus: a fixed tail appended
Measured property: protein stability index
Could you respond with only the numeric value?

Solved entries:
>  <Mutation key>
V24P

>  <Measured property>
protein stability index

>  <Observed value>
2.47

$$$$
>  <Mutation key>
Q16V

>  <Measured property>
protein stability index

>  <Observed value>
2.31

$$$$
>  <Mutation key>
L3F

>  <Measured property>
protein stability index

>  <Observed value>
1.61

$$$$
>  <Mutation key>
G8R

>  <Measured property>
protein stability index

>  <Observed value>
1.78

$$$$
>  <Mutation key>
A9H

>  <Measured property>
protein stability index

>  <Observed value>
2.08

$$$$

Read off the recorded protein stability index for `G4H` 2

Read off the recorded protein stability index for `Q16S` 1.9

Read off the recorded protein stability index for `P19A` 1.34

Read off the recorded protein stability index for `P19H` 1.27

Read off the recorded protein stability index for `V24K` 2.12
